# System: Streptococcus pneumoniae 1175
# Assay type: cell-based
# experimental-setup: Streptococcus pneumoniae 1175; microtiter broth dilution
Record form. Attribute: MIC S. pneumo. 1175. Fill in for each entry.

Batch request: MIC S. pneumo. 1175 for each of the following compounds.
1. CCC1OC(=O)C(C)(F)C(=O)C(C)C(OC2OC(C)CC(N(C)C)C2O)C(C)(OC)CC(C)C(=O)C(C)C2N(C3CN(S(=O)(=O)c4cccc5nccnc45)C3)C(=O)OC12C (stereo not shown)
2. CCC1OC(=O)C(C)C(=O)C(C)C(OC2OC(C)CC(N(C)C)C2O)C(C)(OC)CC(C)C(=O)C(C)C2N(C3CN(Cc4c(OC)ccc5ccccc45)C3)C(=O)OC12C (stereo not shown)
3. CCC1OC(=O)C(C)C(=O)C(C)C(OC2OC(C)CC(N(C)C)C2O)C(C)(OC)CC(C)C(=O)C(C)C2N(C3CN(S(=O)(=O)c4cccc(C#N)c4)C3)C(=O)OC12C (stereo not shown)
4. CCC1OC(=O)C(C)C(=O)C(C)C(OC2OC(C)CC(N(C)C)C2O)C(C)(OC)CC(C)C(=O)C(C)C2N(C3CN(S(=O)(=O)c4ccc(-c5nnn(C)n5)cc4)C3)C(=O)OC12C (stereo not shown)
5. CCC1OC(=O)C(C)C(=O)C(C)C(OC2OC(C)CC(N(C)C)C2O)C(C)(OC)CC(C)C(=O)C(C)C2N(C3CN(S(=O)(=O)c4ccc(-n5cccn5)nc4)C3)C(=O)OC12C (stereo not shown)

1. <0.063 µg/mL
2. <0.063 µg/mL
3. <0.06 µg/mL
4. <0.06 µg/mL
5. <0.06 µg/mL

Batch request: MIC S. pneumo. 1175 for each of the following compounds.
1. CCC1OC(=O)C(C)C(=O)C(C)C(OC2OC(C)CC(N(C)C)C2O)C(C)(OC)CC(C)C(=O)C(C)C2N(CC3CN(Cc4ccc5nccn5c4)C3)C(=O)OC12C (stereo not shown)
2. CCC1OC(=O)C(C)C(=O)C(C)C(OC2OC(C)CC(N(C)C)C2O)C(C)(OC)CC(C)C(=O)C(C)C2N(CC3CN(Cc4c(C)ccc5nc[nH]c45)C3)C(=O)OC12C.O=CO (stereo not shown)
3. CCC1OC(=O)C(C)C(=O)C(C)C(OC2OC(C)CC(N(C)C)C2O)C(C)(OC)CC(C)C(=O)C(C)C2N(CC3CN(C(=O)c4cc(F)ccc4F)C3)C(=O)OC12C (stereo not shown)
4. CCOc1ccc(S(=O)(=O)N2CC(N3C(=O)OC4(C)C(CC)OC(=O)C(C)C(=O)C(C)C(OC5OC(C)CC(N(C)C)C5O)C(C)(OC)CC(C)C(=O)C(C)C34)C2)cc1OC (stereo not shown)
5. CCC1OC(=O)C(C)C(=O)C(C)C(OC2OC(C)CC(N(C)C)C2O)C(C)(OC)CC(C)C(=O)C(C)C2N(C3CN(S(=O)(=O)c4ccc5oc(=O)[nH]c5c4)C3)C(=O)OC12C (stereo not shown) [Example 3.22]

["0.31 µg/mL", "<0.06 µg/mL", "0.5 µg/mL", "<0.063 µg/mL", "0.5 µg/mL"]
